# System Tested: CDK2 (Homo sapiens (Human), UniProt P24941)
# Test Name: CDK2 NanoBiT assay (HiBiT-tagged CDK2 degradation)
# Type: cell-based
# Test Conditions: HEK293, HEK293 clonal line, C-terminal HiBiT tag on CDK2, LgBiT; 24 hours
Dmax listing for selected compounds.

# Compound, Experimental Result
rows = [
    ("O=C1CCC(c2c(F)cc(N3CC(NC(=O)OC4CN(c5nc6ccccc6o5)C4)C3)cc2F)C(=O)N1 (centres unmarked)", "50 to 80%"),
]

**Query** Which measured Dmax belongs to COc1ccc(N(C)C(=O)N2CC(OC(=O)NC3CN(c4cc(F)c(C5CCC(=O)NC5=O)c(F)c4)C3)C2)cc1 (centres unmarked) , tested on CDK2 (Homo sapiens (Human), UniProt P24941)?
**Result** 50 to 80%

**Query** Under CDK2 (Homo sapiens (Human), UniProt P24941): Dmax value of Cc1ccc(N2CC(OC(=O)NC3CN(c4cc(F)c(C5CCC(=O)NC5=O)c(F)c4)C3)C2)nc1 (centres unmarked) ?
**Result** 50 to 80%

**Query** Value wanted: Dmax (CDK2 (Homo sapiens (Human), UniProt P24941)) of entry Cc1ccc(C(=O)N2CC(OC(=O)NC3CN(c4cc(F)c(C5CCC(=O)NC5=O)c(F)c4)C3)C2)cc1 (centres unmarked)
**Result** 50 to 80%

**Query** Reported Dmax for CDK2 (Homo sapiens (Human), UniProt P24941), given CC1(C)CCC(COC(=O)NC2CN(c3cc(F)c(C4CCC(=O)NC4=O)c(F)c3)C2)CC1 (centres unmarked) ?
**Result** > 80%

**Query** Reported Dmax for CDK2 (Homo sapiens (Human), UniProt P24941), given CN(C(=O)C12CC(OC(=O)NC3CN(c4cc(F)c(C5CCC(=O)NC5=O)c(F)c4)C3)(C1)C2)c1ccc(OC(F)(F)F)cc1 (centres unmarked) ?
**Result** 50 to 80%

**Query** Short answer please: Dmax, CDK2 (Homo sapiens (Human), UniProt P24941), entry CN(C)C(=O)C12CC(OC(=O)NC3CN(c4cc(F)c(C5CCC(=O)NC5=O)c(F)c4)C3)(C1)C2 (centres unmarked)
**Result** 10 to 50%

**Query** Request body: readout Dmax, system CDK2 (Homo sapiens (Human), UniProt P24941), query Cc1ccc(N(C)C(=O)N2CC(OC(=O)NC3CN(c4cc(F)c(C5CCC(=O)NC5=O)c(F)c4)C3)C2)nc1 (centres unmarked) . Return the value.
**Result** 10 to 50%

**Query** Tell me reported Dmax for O=C1CCC(c2c(Cl)cc(N3CC(Nc4nnc(C5CC6(CCC6)C5)o4)C3)cc2Cl)C(=O)N1 (centres unmarked) , tested with CDK2 (Homo sapiens (Human), UniProt P24941).
**Result** > 80%

**Query** Item CN(C(=O)N1CC(OC(=O)NC2CN(c3cc(F)c(C4CCC(=O)NC4=O)c(F)c3)C2)C1)c1ccccc1 (centres unmarked) with CDK2 (Homo sapiens (Human), UniProt P24941) - Dmax?
**Result** 50 to 80%
